Provenance of the data: patent US6380396B1

# Lookup of reported log10 IC50 keyed by entry
Molecular target: UniProtKB P21452
Sequence (P21452 1-398): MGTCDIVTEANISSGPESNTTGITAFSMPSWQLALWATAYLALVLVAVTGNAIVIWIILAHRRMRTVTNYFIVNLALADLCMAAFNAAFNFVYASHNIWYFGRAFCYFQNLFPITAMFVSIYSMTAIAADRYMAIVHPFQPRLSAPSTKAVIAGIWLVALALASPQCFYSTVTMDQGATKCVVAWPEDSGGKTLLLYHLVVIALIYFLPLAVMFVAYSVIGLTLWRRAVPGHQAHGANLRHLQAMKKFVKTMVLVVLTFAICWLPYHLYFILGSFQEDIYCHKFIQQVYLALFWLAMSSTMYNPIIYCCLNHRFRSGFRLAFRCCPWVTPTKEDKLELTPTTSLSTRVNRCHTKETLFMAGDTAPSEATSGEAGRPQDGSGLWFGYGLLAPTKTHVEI
observedProperty: log10 IC50 (log10 of the value in nM)

>  <compound>
O=C(c1cccc2c1CCCC2)c1nccn1C[C@@H](CC[N+]12CCC(c3ccccc3)(CC1)CC2)c1ccc(Cl)c(Cl)c1 [Example 18, methanesulphonate]

>  <endpointResult>
0.48

$$$$
>  <compound>
O=C(c1ccc2ccccc2c1)c1nccn1CC(CC[N+]12CCC(c3ccccc3)(CC1)CC2)c1ccc(Cl)c(Cl)c1 (centres unmarked)

>  <endpointResult>
1.98

$$$$
>  <compound>
O=C(c1cccc2c1CCCC2)c1nccn1C[C@H](CC[N+]12CCC(c3ccccc3)(CC1)CC2)c1ccc(Cl)c(Cl)c1

>  <endpointResult>
1.38

$$$$
>  <compound>
Cc1cccc(C(=O)c2nccn2CC(CC[N+]23CCC(c4ccccc4)(CC2)CC3)c2ccc(Cl)c(Cl)c2)c1C (centres unmarked)

>  <endpointResult>
0.60

$$$$
>  <compound>
O=C(c1cccc2c1OCC2)c1nccn1CC(CC[N+]12CCC(c3ccccc3)(CC1)CC2)c1ccc(Cl)c(Cl)c1 (centres unmarked)

>  <endpointResult>
1.04

$$$$

* * *

Target: human NK1 receptor (Homo sapiens, UniProt P25103)
Construct: membranes prepared from the human IM9 cell line expressing the human NK1 receptor; endogenous in cells
Sequence (P25103 whole entry): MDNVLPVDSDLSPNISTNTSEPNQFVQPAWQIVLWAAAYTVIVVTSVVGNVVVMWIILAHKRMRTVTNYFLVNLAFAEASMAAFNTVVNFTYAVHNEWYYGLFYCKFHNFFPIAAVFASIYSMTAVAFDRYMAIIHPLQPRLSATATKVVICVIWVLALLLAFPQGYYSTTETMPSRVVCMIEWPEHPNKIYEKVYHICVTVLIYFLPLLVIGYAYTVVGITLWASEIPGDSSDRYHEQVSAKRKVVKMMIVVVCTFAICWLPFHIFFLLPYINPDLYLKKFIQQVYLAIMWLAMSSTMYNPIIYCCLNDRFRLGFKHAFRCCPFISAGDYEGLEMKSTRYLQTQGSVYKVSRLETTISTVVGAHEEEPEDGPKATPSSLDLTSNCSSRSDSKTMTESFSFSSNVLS
Assay: inhibition of [3H]-Substance P binding to membranes from human IM9 cell line
Param label: returns T when IC50 < 2 nM, returns F otherwise, including exact equality.

>  <molecule>
O=C(c1cccc2c1OCC2)c1nccn1CC(CC[N+]12CCC(c3ccccc3)(CC1)CC2)c1ccc(Cl)c(Cl)c1 (centres unmarked) [Example 5]

>  <classification>
F

$$$$
>  <molecule>
O=C(c1cccc2c1CCCC2)c1nccn1C[C@@H](CC[N+]12CCC(c3ccccc3)(CC1)CC2)c1ccc(Cl)c(Cl)c1 [Example 18, methanesulphonate]

>  <classification>
F

$$$$
>  <molecule>
O=C(c1ccc2ccccc2c1)c1nccn1CC(CC[N+]12CCC(c3ccccc3)(CC1)CC2)c1ccc(Cl)c(Cl)c1 (centres unmarked) [Example 6]

>  <classification>
F

$$$$
>  <molecule>
Cc1cccc(C(=O)c2nccn2CC(CC[N+]23CCC(c4ccccc4)(CC2)CC3)c2ccc(Cl)c(Cl)c2)c1C (centres unmarked) [Example 2]

>  <classification>
T

$$$$
